experiment: in vitro; assay type: cell-based, Mouse; conditions: mouse, Mean CC50 ± SD −Irr
Square brackets hold non-standard residues; d marks the D form. Peptide text beside a SMILES is read from it. Phe(4-F) = N[C@@H](Cc1ccc(F)cc1)C(=O)O
measured_attribute: CC50 (µM)
Response body: numeric value in µM, unit text excluded.

Incoming: Fill in: CC50 of CC[C@H](C)[C@H](NC(=O)CNC(=O)[C@H](CO)NC(=O)[C@H](CC(C)C)NC(=O)[C@@H](NC(=O)[C@H](CCCNC(=N)N)NC(=O)CNC(=O)[C@@H](NC(=O)[C@H](CC(C)C)NC(=O)[C@@H]1CCCN1C(=O)[C@H](CC(C)C)NC(=O)[C@@H](N)Cc1ccc(F)cc1)[C@@H](C)CC)C(C)C)C(=O)N[C@@H](CC(C)C)C(N)=O [DT4F, Phe(4F)-LPLIGRVLSGILNH2] (H-[Phe(4-F)]LPLIGRVLSGIL-NH2) is ___
Outgoing: 55.4
